target: T1, Full length recombinant HBcAg (rHBcAg) encompassing residues 1-183 (hepatitis B virus, UniProt P03146 1-183); assay: competition EIA, HBcAg coated 1 ug/ml, peptide 25 ug/ml before mAb 4-2 (competitor); OD of bound mAb
T1 construct: range 1-183; also called hepatitis B virus core antigen
T1 sequence (P03146 whole entry, the tested form may be a part): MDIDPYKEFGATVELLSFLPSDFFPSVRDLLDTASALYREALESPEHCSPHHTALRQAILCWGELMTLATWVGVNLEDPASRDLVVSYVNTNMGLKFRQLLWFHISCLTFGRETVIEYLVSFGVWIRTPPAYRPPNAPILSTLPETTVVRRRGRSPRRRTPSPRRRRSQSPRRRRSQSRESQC
Answer each item with its documented OD at 490 nm.
Entry rule: numbers only, all in OD.

Problem: Could you share which OD at 490 nm value was measured for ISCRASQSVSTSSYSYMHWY [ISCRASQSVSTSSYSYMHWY (SEQ. ID. No. 17)] ?
Result: 0.439

Problem: Could you share which OD at 490 nm value was measured for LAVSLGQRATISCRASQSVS [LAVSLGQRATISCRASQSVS (SEQ. ID. No. 16)] ?
Result: 0.429

Problem: Could you share which OD at 490 nm value was measured for QQKPGQPPKLLIKYASNLES [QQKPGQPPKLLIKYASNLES (SEQ. ID. No. 19)] ?
Result: 0.406

Problem: Could you share which OD at 490 nm value was measured for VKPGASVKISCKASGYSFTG (also called Peptide # 25) [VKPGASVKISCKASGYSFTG (SEQ. ID. No. 28)] ?
Result: 0.359

Problem: Could you share which OD at 490 nm value was measured for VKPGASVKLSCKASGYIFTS (also called Peptide # 2; Pept. #2) [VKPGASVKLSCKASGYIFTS (SEQ. ID. No. 5)] ?
Result: 0.341

Problem: Could you share which OD at 490 nm value was measured for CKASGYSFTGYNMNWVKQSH (also called Peptide # 26) [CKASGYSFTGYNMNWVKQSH (SEQ. ID. No. 29)] ?
Result: 0.383
